Origin of the recorded values: patent US8414938B2

- System: MDCK cells
- COND: dog

{"COMPOUND": "C/C=C(\\C)C(=O)O[C@H]1c2cc(OC)c(OC)c(OC)c2-c2c(cc3c(c2OC)OCO3)C[C@H](C)[C@@]1(C)O (atropisomer, axis not shown)", "pharmaceutical toxicity / cytotoxicity": "more than 100 μg/ml"}
{"COMPOUND": "COc1cc2c(c(OC)c1OC)-c1c(cc3c(c1OC)OCO3)C[C@H](C)[C@@](C)(O)[C@H]2OC(=O)c1ccccc1 (atropisomer, axis not shown)", "pharmaceutical toxicity / cytotoxicity": "more than 100 μg/ml"}
{"COMPOUND": "COc1cc2c(cc1O)C(=O)[C@@H](C)[C@@H](C)[C@@H]2c1ccc(OC)c(OC)c1", "pharmaceutical toxicity / cytotoxicity": "100 µg/mL"}
{"COMPOUND": "COc1cc([C@@H]2c3cc(OC)c(O)cc3C(=O)[C@H](C)[C@H]2C)ccc1O [Epiwulignan A1]", "pharmaceutical toxicity / cytotoxicity": "more than 100 μg/ml"}
{"COMPOUND": "COc1cc([C@@H]2c3cc(OC)c(O)cc3C(=O)[C@@H](C)[C@H]2C)ccc1O", "pharmaceutical toxicity / cytotoxicity": "more than 100 μg/ml"}
